B1: NFE2L1 (parent)
chain: TLDGYGIHPKSIDLDNYFTARRLL

- Variants of: B1
- ASSAY NAME: protein stability index of a GFP-peptide fusion (GPS, HEK-293T) (PSI 1-6); higher = more stable;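 further: lentivirally expressed fusions sorted by FACS into six bins by GFP to DsRed ratio, PSI derived from sequencing read proportions per bin multiplied by bin number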
- APPLIED CONDITIONS: c terminus: a fixed tail appended
READOUT NAME: protein stability index
// no unit string in output, number only

INPUT: Report protein stability index for "K10L"
OUTPUT: 2.01

INPUT: Report protein stability index for "L14R"
OUTPUT: 2.1

INPUT: Report protein stability index for "L23V"
OUTPUT: 1.66

INPUT: Report protein stability index for "T19K"
OUTPUT: 2.46

INPUT: Report protein stability index for "H8E"
OUTPUT: 2.42

INPUT: Report protein stability index for "L2C"
OUTPUT: 2.75

INPUT: Report protein stability index for "L23G"
OUTPUT: 2.42

INPUT: Report protein stability index for "F18K"
OUTPUT: 2.88

INPUT: Report protein stability index for "T1Y"
OUTPUT: 2.32

INPUT: Report protein stability index for "H8Q"
OUTPUT: 1.79

INPUT: Report protein stability index for "R22T"
OUTPUT: 2.25

INPUT: Report protein stability index for "F18E"
OUTPUT: 2.71

INPUT: Report protein stability index for "D13H"
OUTPUT: 1.64

INPUT: Report protein stability index for "G6S"
OUTPUT: 1.62

INPUT: Report protein stability index for "A20D"
OUTPUT: 2.76

INPUT: Report protein stability index for "L14K"
OUTPUT: 2.49

INPUT: Report protein stability index for "T19D"
OUTPUT: 2.07

INPUT: Report protein stability index for "T1H"
OUTPUT: 1.69

INPUT: Report protein stability index for "R22E"
OUTPUT: 1.88

INPUT: Report protein stability index for "D15T"
OUTPUT: 1.77

INPUT: Report protein stability index for "R22P"
OUTPUT: 1.97

INPUT: Report protein stability index for "I7N"
OUTPUT: 2.1

INPUT: Report protein stability index for "S11G"
OUTPUT: 1.91

INPUT: Report protein stability index for "I7H"
OUTPUT: 2.85

INPUT: Report protein stability index for "T1V"
OUTPUT: 1.55

INPUT: Report protein stability index for "G6L"
OUTPUT: 1.59

INPUT: Report protein stability index for "L23R"
OUTPUT: 3.19

INPUT: Report protein stability index for "L23N"
OUTPUT: 2.32

INPUT: Report protein stability index for "F18M"
OUTPUT: 2.08

INPUT: Report protein stability index for "H8T"
OUTPUT: 2.05

INPUT: Report protein stability index for "D13P"
OUTPUT: 2.26

INPUT: Report protein stability index for "Y5L"
OUTPUT: 2.3

INPUT: Report protein stability index for "L2N"
OUTPUT: 2.06

INPUT: Report protein stability index for "G4H"
OUTPUT: 1.62

INPUT: Report protein stability index for "N16T"
OUTPUT: 1.76

INPUT: Report protein stability index for "T1G"
OUTPUT: 1.46

INPUT: Report protein stability index for "L24C"
OUTPUT: 1.84

INPUT: Report protein stability index for "L24I"
OUTPUT: 1.75

INPUT: Report protein stability index for "L14T"
OUTPUT: 2.55

INPUT: Report protein stability index for "S11R"
OUTPUT: 1.97

INPUT: Report protein stability index for "A20M"
OUTPUT: 1.96

INPUT: Report protein stability index for "T1C"
OUTPUT: 1.92

INPUT: Report protein stability index for "I12H"
OUTPUT: 2.24

INPUT: Report protein stability index for "F18V"
OUTPUT: 3.05

INPUT: Report protein stability index for "D13C"
OUTPUT: 2

INPUT: Report protein stability index for "I12M"
OUTPUT: 1.75
